# measured-on: JAK2 (Homo sapiens (Human))
# procedure-summary: Inhibition of enzymatic JAK2 kinase activity (TR-FRET)
# Format: biochemical
# measurement-conditions: read-out: IC50 JAK
Parameter IC50: see the listing below.

Solved cases (6 shown):
compound: O=c1[nH]ncc2nc(N3CCCCCC3)nc(Nc3ccc(OC4CCN(CCO)CC4)cc3)c12 [Example 329]
measured-on: JAK2 (Homo sapiens (Human))
IC50: < 10 nM

compound: O=C(O)CC1CCN(CCCOc2ccc(Nc3nc(N4CCCCCC4)nc4cn[nH]c(=O)c34)cc2)CC1 [Example 126]
measured-on: JAK2 (Homo sapiens (Human))
IC50: < 50 nM

compound: O=C(O)CN1CCN(c2ccc(Nc3nc(N4CCCCCC4)nc4cn[nH]c(=O)c34)cn2)CC1 [Example 144]
measured-on: JAK2 (Homo sapiens (Human))
IC50: < 100 nM

compound: O=C1CN(CCOc2ccc(Nc3nc(N4CCCCCC4)nc4cn[nH]c(=O)c34)cc2)CCN1 [Example 157]
measured-on: JAK2 (Homo sapiens (Human))
IC50: < 50 nM

compound: O=C(O)CN1CCCN(c2ccc(Nc3nc(N4CCCCCC4)nc4cn[nH]c(=O)c34)cc2)CC1 [Example 145]
measured-on: JAK2 (Homo sapiens (Human))
IC50: < 10 nM

compound: N#CCC1CCN(c2nc(Nc3ccc(N4CCNCC4)nc3)c3c(=O)[nH]ncc3n2)CC1 [Example 231]
measured-on: JAK2 (Homo sapiens (Human))
IC50: < 100 nM

[ask] Quick one: IC50 for O=c1[nH]ncc2nc(N3CCCCCC3)nc(Nc3ccc(CCCN4CCC(O)CC4)cc3)c12 [Example 179] ?
[reply] < 10 nM

[ask] Quick one: IC50 for CN1CCN(CCOc2ccc(Nc3nc(N4CCCCCC4)nc4cn[nH]c(=O)c34)cc2)CC1 [Example 95] ?
[reply] < 50 nM

----------
# measured-on: JAK2 (Homo sapiens (Human), UniProt O60674)
# Sequence (O60674 808-1132): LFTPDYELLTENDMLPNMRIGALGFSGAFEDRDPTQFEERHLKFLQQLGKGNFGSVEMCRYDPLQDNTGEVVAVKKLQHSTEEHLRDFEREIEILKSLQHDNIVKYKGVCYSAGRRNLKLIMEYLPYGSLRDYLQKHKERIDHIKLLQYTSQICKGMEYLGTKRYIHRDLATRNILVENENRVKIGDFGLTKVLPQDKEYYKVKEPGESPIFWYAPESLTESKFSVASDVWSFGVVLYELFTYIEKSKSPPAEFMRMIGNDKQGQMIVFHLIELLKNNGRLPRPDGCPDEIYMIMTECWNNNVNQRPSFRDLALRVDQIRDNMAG
# procedure-summary: Inhibition of enzymatic JAK2 kinase activity (TR-FRET)
# Format: biochemical
# measurement-conditions: read-out: IC50 JAK
measured-quantity: IC50

[ask] Find IC50 (JAK2 (Homo sapiens (Human), UniProt O60674)) for the entry O=C(O)CCC1CCN(c2ccc(Nc3nc(N4CCCCCC4)nc4cn[nH]c(=O)c34)cc2)CC1 [Example 130]
[reply] < 10 nM

----------
# measured-on: Syk (356-635 amino acids) catalytic domain (Homo sapiens (Human))
# procedure-summary: Inhibition of enzymatic Syk kinase activity (radiometric)
# Assay type: biochemical
# measurement-conditions: read-out: IC50 Syk
measured-quantity: IC50

Solved cases (2 shown):
compound: O=c1[nH]ncc2nc(N3CCCCCC3)nc(Nc3ccc(N4CCC(Cc5nn[nH]n5)CC4)cc3)c12 [Example 244]
measured-quantity: IC50
test-value: < 0.01 µM

compound: CCN1CCN(CCc2ccc(Nc3nc(N4CCC(CC#N)CC4)nc4cn[nH]c(=O)c34)cc2)CC1 [Example 197]
measured-quantity: IC50
test-value: < 0.01 µM

[ask] Find IC50 (Syk (356-635 amino acids) catalytic domain (Homo sapiens (Human))) for the entry O=C1CN(c2ccc(Nc3nc(N4CCCCCC4)nc4cn[nH]c(=O)c34)cc2)CCN1 [Example 165]
[reply] < 0.1 µM

[ask] Find IC50 (Syk (356-635 amino acids) catalytic domain (Homo sapiens (Human))) for the entry O=c1[nH]ncc2nc(N3CCCCC3)nc(Nc3ccc(OCCN4CCNCC4)cc3)c12 [Example 153]
[reply] < 0.05 µM

[ask] Find IC50 (Syk (356-635 amino acids) catalytic domain (Homo sapiens (Human))) for the entry O=c1[nH]ncc2nc(N3CCCCCC3)nc(Nc3ccc(OC4CCN(CCO)CC4)cc3)c12 [Example 329]
[reply] < 0.01 µM

[ask] Find IC50 (Syk (356-635 amino acids) catalytic domain (Homo sapiens (Human))) for the entry COC(=O)c1ccc(-c2nc(Nc3ccc(N4CCOCC4)cc3)c3c(=O)[nH]ncc3n2)cc1 [Example 29]
[reply] > 0.1 µM

[ask] Find IC50 (Syk (356-635 amino acids) catalytic domain (Homo sapiens (Human))) for the entry COc1cccc(-c2nc(Nc3ccc(N4CCC(CC#N)CC4)cc3)c3c(=O)[nH]ncc3n2)c1 [Example 163]
[reply] > 0.1 µM

[ask] Find IC50 (Syk (356-635 amino acids) catalytic domain (Homo sapiens (Human))) for the entry CN(C)CCN1CCN(c2ccc(Nc3nc(N4CCC(CC#N)CC4)nc4cn[nH]c(=O)c34)cc2)CC1 [Example 268]
[reply] < 0.01 µM

[ask] Find IC50 (Syk (356-635 amino acids) catalytic domain (Homo sapiens (Human))) for the entry COC1CCN(c2ccc(Nc3nc(N4CCCCCC4)nc4cn[nH]c(=O)c34)cc2)CC1 [Example 288]
[reply] < 0.05 µM

[ask] Find IC50 (Syk (356-635 amino acids) catalytic domain (Homo sapiens (Human))) for the entry N#CCC1CCN(c2nc(Nc3ccc(N4CCC(CCO)CC4)cc3)c3c(=O)[nH]ncc3n2)CC1 [Example 196]
[reply] < 0.01 µM

----------
# measured-on: Syk (356-635 amino acids) catalytic domain (Homo sapiens (Human), UniProt P43405)
# procedure-summary: Inhibition of enzymatic Syk kinase activity (radiometric)
# Assay type: biochemical
# measurement-conditions: read-out: IC50 Syk
Counter-ions that a name gives are not always drawn.
Parameter IC50: see the listing below.

Solved cases (3 shown):
molecule: O=c1[nH]ncc2nc(N3CCCCCC3)nc(Nc3ccc(CN4CCNCC4)cc3)c12 [Example 52, hydrochloride]
IC50: < 10 nM
--
molecule: O=c1[nH]ncc2nc(N3CCCCCC3)nc(Nc3ccc(CCN4CCNCC4)cc3)c12
IC50: < 10 nM
--
molecule: O=c1[nH]ncc2nc(N3CCCCCC3)nc(Nc3ccc(-c4nnn(CCO)n4)cc3)c12
IC50: < 100 nM

[ask] Find IC50 (Syk (356-635 amino acids) catalytic domain (Homo sapiens (Human), UniProt P43405)) for the entry CCN1CCN(c2ccc(Nc3nc(-c4ccccc4)nc4cn[nH]c(=O)c34)cc2)CC1
[reply] < 10 nM

----------
# measured-on: JAK2 (Homo sapiens (Human), UniProt O60674)
# procedure-summary: Inhibition of enzymatic JAK2 kinase activity (TR-FRET)
# Format: biochemical
# measurement-conditions: read-out: IC50 JAK
pIC50: −log10 of the molar value. Counter-ions that a name gives are not always drawn.
Parameter pIC50: see the listing below.

Solved cases (5 shown):
molecule: O=c1[nH]ncc2nc(N3CCOCC3)nc(Nc3ccc(CN4CCNCC4)cc3)c12 [Example 3, hydrochloride]
measured-on: JAK2 (Homo sapiens (Human), UniProt O60674)
pIC50: > 7.00
//
molecule: CCN1CCN(c2ccc(Nc3nc(N4CCCCCC4)nc4cn[nH]c(=O)c34)cc2)CC1
measured-on: JAK2 (Homo sapiens (Human), UniProt O60674)
pIC50: > 8.00
//
molecule: O=C(O)C1CC12CCN(c1ccc(Nc3nc(N4CCCCCC4)nc4cn[nH]c(=O)c34)cc1F)CC2 (centres unmarked)
measured-on: JAK2 (Homo sapiens (Human), UniProt O60674)
pIC50: > 8.00
//
molecule: CN(C)CCOc1ccc(Nc2nc(N3CCCCCC3)nc3cn[nH]c(=O)c23)cc1
measured-on: JAK2 (Homo sapiens (Human), UniProt O60674)
pIC50: > 8.00
//
molecule: O=C(O)C1CCN(c2ccc(Nc3nc(-c4ccccc4)nc4cn[nH]c(=O)c34)cc2)CC1
measured-on: JAK2 (Homo sapiens (Human), UniProt O60674)
pIC50: > 8.00

[ask] Quick one: pIC50 for O=c1[nH]ncc2nc(N3CCCCCC3)nc(Nc3ccc(N4CCCC(O)C4)nc3)c12 (centres unmarked) ?
[reply] > 7.30

[ask] Quick one: pIC50 for O=c1[nH]ncc2nc(N3CCCCCC3)nc(Nc3ccc(N(CCO)CCO)cc3)c12 ?
[reply] > 8.00

[ask] Quick one: pIC50 for O=C(O)CN1CCCN(c2ccc(Nc3nc(N4CCCCC4)nc4cn[nH]c(=O)c34)cc2)CC1 ?
[reply] > 7.30

----------
Parameter pIC50: see the listing below.
# measured-on: Syk (356-635 amino acids) catalytic domain (Homo sapiens (Human))
# procedure-summary: Inhibition of enzymatic Syk kinase activity (radiometric)
# Format: biochemical
# measurement-conditions: read-out: IC50 Syk
pIC50: −log10 of the molar value. Counter-ions that a name gives are not always drawn.

compound: O=C(O)C1CC12CCN(c1nc(Nc3ccc(CN4CCNCC4)cc3)c3c(=O)[nH]ncc3n1)CC2 (centres unmarked) [Example 25, hydrochloride]
measured-on: Syk (356-635 amino acids) catalytic domain (Homo sapiens (Human))
pIC50: > 7.30

[ask] Quick one: pIC50 for NC(=O)CC1CCN(c2ccc(Nc3nc(-c4ccccc4)nc4cn[nH]c(=O)c34)cn2)CC1 [Example 102] ?
[reply] > 7.30

[ask] Quick one: pIC50 for O=c1[nH]ncc2nc(N3CCCCCC3)nc(Nc3ccc(CCCO)cc3)c12 [Example 308] ?
[reply] > 7.30

[ask] Quick one: pIC50 for N#CCC1CCN(c2nc(Nc3ccc(OCCN4CCC(CO)CC4)cc3)c3c(=O)[nH]ncc3n2)CC1 [Example 218] ?
[reply] > 7.30

[ask] Quick one: pIC50 for O=C(O)CCN1CCN(c2ccc(Nc3nc(N4CCCCCC4)nc4cn[nH]c(=O)c34)cc2)CC1 [Example 208] ?
[reply] > 8.00

[ask] Quick one: pIC50 for O=c1[nH]ncc2nc(N3CCCCCC3)nc(Nc3ccc(N4CCC(CCO)CC4)nc3)c12 [Example 236] ?
[reply] > 7.00

[ask] Quick one: pIC50 for N#CCC1CCN(c2nc(Nc3ccc(N4CCN(CCO)CC4)cc3)c3c(=O)[nH]ncc3n2)CC1 [Example 191] ?
[reply] > 8.00

[ask] Quick one: pIC50 for CN(C)c1nc(Nc2ccc(CN3CCNCC3)cc2)c2c(=O)[nH]ncc2n1 [Example 49, hydrochloride] ?
[reply] > 7.00

The values you see were collected from patent US10183944B2.
